log10 Ki, Matrix metalloproteinase-9 (Homo sapiens, UniProt P14780), per-entry values.
Scale: log10; quantity: Ki; unit before log: nM

O=C(NO)[C@H]1CCCN1S(=O)(=O)c1ccc(C#Cc2ccccc2)cc1
-0.08

// log10 Ki value for `COc1ccc(S(=O)(=O)N2CCC[C@@H]2C(=O)NO)cc1` : 1.30

The measured log10 Ki associated with `O=C(/C=C/c1ccco1)N[C@H]1C[C@H](C(=O)NO)N(S(=O)(=O)c2ccc(Cl)c(Cl)c2)C1` reads 2.51

---

Measured Ki, listed per entry.
target: 72 kDa type IV collagenase (Homo sapiens, UniProt P08253)
Sequence (P08253 whole entry): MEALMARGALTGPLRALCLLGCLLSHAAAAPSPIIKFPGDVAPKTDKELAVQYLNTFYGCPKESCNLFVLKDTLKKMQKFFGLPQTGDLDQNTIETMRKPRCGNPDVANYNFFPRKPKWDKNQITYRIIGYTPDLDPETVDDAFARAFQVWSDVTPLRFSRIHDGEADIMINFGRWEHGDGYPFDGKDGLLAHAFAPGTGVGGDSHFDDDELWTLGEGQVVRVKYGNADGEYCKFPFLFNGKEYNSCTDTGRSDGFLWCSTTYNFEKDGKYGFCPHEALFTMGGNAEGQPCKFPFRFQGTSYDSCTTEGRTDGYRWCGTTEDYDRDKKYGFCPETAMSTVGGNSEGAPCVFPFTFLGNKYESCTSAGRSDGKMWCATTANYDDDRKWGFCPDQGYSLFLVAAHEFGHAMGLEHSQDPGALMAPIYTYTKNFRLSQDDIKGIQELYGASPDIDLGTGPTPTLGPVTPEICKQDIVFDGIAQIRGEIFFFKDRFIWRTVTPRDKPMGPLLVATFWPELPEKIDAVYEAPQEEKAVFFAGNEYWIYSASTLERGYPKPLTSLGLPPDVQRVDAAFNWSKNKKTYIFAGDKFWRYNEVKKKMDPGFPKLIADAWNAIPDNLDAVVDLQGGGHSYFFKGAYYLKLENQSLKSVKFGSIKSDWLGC
Express your answer in nM, writing the number without its unit.

O=C(Nc1ccc(S(=O)(=O)N2CCC[C@@H]2C(=O)NO)cc1)OCc1ccccc1
2.16
CS(=O)(=O)N1C[C@@H](NS(=O)(=O)c2ccc(-c3ccccc3)cc2)C[C@@H]1C(=O)NO
2260
COc1ccc(S(=O)(=O)N2C[C@@H](NS(=O)(=O)c3ccc(-c4ccccc4)cc3)C[C@@H]2C(=O)NO)cc1
406

Below: the item to evaluate.
`O=C(Nc1ccc(S(=O)(=O)N2CCC[C@@H]2C(=O)NO)cc1)c1ccc([N+](=O)[O-])cc1` yielded Ki of 0.087
